experiment: Pharmacokinetic analyses in mouse; format: in vivo; settings: NMRI, mouse, plasma, po, 100 mg/kg, NMRI mice, p.o., 100 mg/kg; read-out: AUC0-24h
assay_readout: AUC(0-t)

AUC(0-t) for Cc1ncsc1-c1ccc([C@H](CCCCCN2CCC(c3ccc4c(c3)n(C3CCCC3)c3nc(=O)c5c(Br)cccc5n43)CC2)NC(=O)[C@@H]2C[C@@H](O)CN2C(=O)[C@@H](NC(=O)C2(F)CC2)C(C)(C)C)cc1 ?
38 µM·h

* * *

target: VCB: PROTAC: SMARCA4^BD ternary complex (Homo sapiens, UniProt P40337+P51532); test: SPR ternary complex measurement, VCB immobilised, 10 µM SMARCA4^BD present; type: binding; design: P51532, residues 1448–1569 with additional N-terminal SM residues; His6 (TEV site) (N, cleaved yes); GST (TEV site) (N, cleaved yes); made in house; host or cells: SMARCA4^BD: Escherichia coli BL21(DE3); details: cooperativity, SMARCA4; ratio of KD values measured in the same run
Sequence (P40337 54-213): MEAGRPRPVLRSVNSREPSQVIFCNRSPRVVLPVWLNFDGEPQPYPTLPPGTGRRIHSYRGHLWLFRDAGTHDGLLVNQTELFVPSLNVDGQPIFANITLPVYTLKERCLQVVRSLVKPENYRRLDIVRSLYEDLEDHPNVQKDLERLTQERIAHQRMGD
Sequence (Q15369 17-112 partner limits assumed): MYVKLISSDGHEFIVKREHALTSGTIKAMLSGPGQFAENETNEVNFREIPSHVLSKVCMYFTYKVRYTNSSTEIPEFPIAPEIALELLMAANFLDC
Sequence (Q15370 1-104 partner limits assumed): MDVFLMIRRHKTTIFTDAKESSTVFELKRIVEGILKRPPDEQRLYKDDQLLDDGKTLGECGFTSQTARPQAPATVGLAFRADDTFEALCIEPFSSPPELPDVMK
Sequence (P51532 1448-1569): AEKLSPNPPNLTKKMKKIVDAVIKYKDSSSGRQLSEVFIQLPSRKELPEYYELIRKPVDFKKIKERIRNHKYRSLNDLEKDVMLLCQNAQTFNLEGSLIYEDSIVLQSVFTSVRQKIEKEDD
assay_readout: alpha
Number, no unit, nothing else.

[[record]]
compound = "Cc1ncsc1-c1ccc(CNC(=O)[C@@H]2C[C@@H](O)CN2C(=O)[C@@H](NC(=O)C2(F)CC2)C(C)(C)C)c(OCCOCCOCCOCCN2CCC(c3ccc4c(c3)n(C3CCCC3)c3nc(=O)c5c(Br)cccc5n43)CC2)c1"
number = 1.5

[[record]]
compound = "Cc1ncsc1-c1ccc([C@H](CCCCCN2CCC(c3ccc4c(c3)n(C3CCCC3)c3nc(=O)c5c(Br)cccc5n43)CC2)NC(=O)[C@@H]2C[C@@H](O)CN2C(=O)[C@@H](NC(=O)C2(F)CC2)C(C)(C)C)cc1"
number = 0.6

[[record]]
compound = "Cc1ncsc1-c1ccc([C@H](COC(C)CN2CCC(c3ccc4c(c3)n(C3CCCC3)c3nc(=O)c5c(Br)cccc5n43)CC2)NC(=O)[C@@H]2C[C@@H](O)CN2C(=O)[C@@H](NC(=O)C2(N(C)C)CC2)C(C)(C)C)cc1 (stereo partly shown)"
number = 0.7


As a next step, examine the compound that follows.
alpha for Cc1ncsc1-c1ccc([C@H](COCCCN2CCC(c3ccc4c(c3)n(C3CCCC3)c3nc(=O)c5c(Br)cccc5n43)CC2)NC(=O)[C@@H]2C[C@@H](O)CN2C(=O)[C@@H](NC(=O)C2(F)CC2)C(C)(C)C)cc1 ?
0.7
